Data origin, for the record: ChEMBL document CHEMBL4257575

Assay System: Multidrug resistance-associated protein 1 (Homo sapiens)
Sequence (P33527 whole entry): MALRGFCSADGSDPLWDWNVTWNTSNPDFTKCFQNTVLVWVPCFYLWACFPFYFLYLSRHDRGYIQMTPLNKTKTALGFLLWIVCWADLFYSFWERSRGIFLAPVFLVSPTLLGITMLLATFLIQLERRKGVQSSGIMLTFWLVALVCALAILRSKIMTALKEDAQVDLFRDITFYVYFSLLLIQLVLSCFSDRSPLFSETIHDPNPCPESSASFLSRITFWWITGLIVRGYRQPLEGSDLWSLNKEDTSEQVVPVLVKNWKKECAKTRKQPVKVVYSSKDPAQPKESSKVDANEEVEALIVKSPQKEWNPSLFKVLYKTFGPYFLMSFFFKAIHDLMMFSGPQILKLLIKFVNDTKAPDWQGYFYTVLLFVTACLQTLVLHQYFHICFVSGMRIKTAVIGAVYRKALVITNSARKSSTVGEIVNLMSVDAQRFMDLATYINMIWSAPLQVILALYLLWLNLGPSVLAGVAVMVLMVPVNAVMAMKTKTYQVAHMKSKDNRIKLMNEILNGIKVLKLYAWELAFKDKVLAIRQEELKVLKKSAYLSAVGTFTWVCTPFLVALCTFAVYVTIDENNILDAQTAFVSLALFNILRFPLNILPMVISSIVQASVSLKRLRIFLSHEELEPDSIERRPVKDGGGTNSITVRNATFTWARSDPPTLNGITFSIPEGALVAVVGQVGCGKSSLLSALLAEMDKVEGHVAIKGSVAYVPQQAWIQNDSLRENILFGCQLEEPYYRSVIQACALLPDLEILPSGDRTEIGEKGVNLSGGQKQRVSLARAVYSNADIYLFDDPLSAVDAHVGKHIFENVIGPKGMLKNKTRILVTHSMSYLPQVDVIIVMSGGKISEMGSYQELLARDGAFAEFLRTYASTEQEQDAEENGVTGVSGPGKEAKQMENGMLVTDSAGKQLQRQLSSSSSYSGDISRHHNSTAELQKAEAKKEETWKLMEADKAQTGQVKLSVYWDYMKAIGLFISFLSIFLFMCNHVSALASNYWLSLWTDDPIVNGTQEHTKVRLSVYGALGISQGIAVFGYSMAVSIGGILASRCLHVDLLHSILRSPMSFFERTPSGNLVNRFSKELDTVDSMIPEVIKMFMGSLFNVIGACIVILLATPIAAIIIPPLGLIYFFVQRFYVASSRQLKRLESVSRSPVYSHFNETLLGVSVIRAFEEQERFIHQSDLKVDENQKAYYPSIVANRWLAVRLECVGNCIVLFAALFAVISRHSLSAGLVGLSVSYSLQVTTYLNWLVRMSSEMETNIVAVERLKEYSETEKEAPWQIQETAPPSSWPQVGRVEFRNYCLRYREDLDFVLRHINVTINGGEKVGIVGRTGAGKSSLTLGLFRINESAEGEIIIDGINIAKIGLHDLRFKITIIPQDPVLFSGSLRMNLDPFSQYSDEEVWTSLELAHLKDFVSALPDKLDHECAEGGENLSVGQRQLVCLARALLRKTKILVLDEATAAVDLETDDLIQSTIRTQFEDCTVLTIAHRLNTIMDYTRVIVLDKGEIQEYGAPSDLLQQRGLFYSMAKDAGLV
Experiment: Inhibition of MRP1 in human 2008/MRP1 cells assessed as potentiation of doxorubicin-induced cytotoxicity by measuring cell survival at 2 uM after 5 days by MTS assay relative to control
Assay type: cell-based
Assay Conditions: 120 h
So basically: Survival at 60% or higher? That is Satisfied. Lower than 60%? That is Not satisfied.

Chemical Structure: COc1cccc(COc2c(-c3ccc(OCCOCCn4cc(CN5CCN(Cc6cn(CCOCCOc7ccc(-c8oc9ccccc9c(=O)c8OCc8cccc(OC)c8)cc7)nn6)CC5)nn4)cc3)oc3ccccc3c2=O)c1
Label Class: Satisfied

Chemical Structure: [N-]=[N+]=NCCOc1ccc2c(=O)cc(-c3ccccc3)oc2c1
Label Class: Satisfied

Chemical Structure: Cc1ccc2oc(-c3ccc(OCCOCCOCCn4cc(-c5ccc(-c6cn(CCOCCOCCOc7ccc(-c8cc(=O)c9cc(C)ccc9o8)cc7)nn6)cc5)nn4)cc3)cc(=O)c2c1
Label Class: Satisfied

Chemical Structure: C#CCCCCOc1ccc(/C=C/C(=O)c2cc(CC)ccc2O)cc1
Label Class: Satisfied

Chemical Structure: Cc1ccc2oc(-c3ccc(OCCCCc4cn(CCOCCOc5cccc(-c6oc7ccccc7c(=O)c6OCc6ccccc6)c5)nn4)cc3)cc(=O)c2c1
Label Class: Not satisfied

Chemical Structure: Cc1ccc2oc(-c3ccc(OCCOCCOCCn4cc(CCCCOc5ccc6c(=O)cc(-c7ccccc7)oc6c5)nn4)cc3)cc(=O)c2c1
Label Class: Not satisfied

Chemical Structure: COc1cccc(COc2c(-c3ccc(OCCOCCn4cc(CN(CCOc5ccc6c(=O)cc(-c7ccccc7)oc6c5)Cc5ccccc5)nn4)cc3)oc3ccccc3c2=O)c1
Label Class: Satisfied

Chemical Structure: O=C(/C=C/c1ccc(OCCCCc2cn(CCOCCOCCOc3ccc(-c4cc(=O)c5cc(F)ccc5o4)cc3)nn2)cc1)c1ccccc1O
Label Class: Not satisfied

Chemical Structure: Cc1ccc2oc(-c3ccc(OCCCCc4cn(CCOCCOc5ccc(-c6oc7ccccc7c(=O)c6OCc6ccccc6)cc5)nn4)cc3)cc(=O)c2c1
Label Class: Satisfied

Chemical Structure: O=c1cc(-c2ccc(OCCCc3cn(CCOCCOc4ccc(-c5cc(=O)c6cc(F)ccc6o5)cc4)nn3)cc2)oc2ccccc12
Label Class: Not satisfied

Chemical Structure: O=c1cc(-c2ccc(OCCCc3cn(CCOCCOc4cccc(-c5oc6ccccc6c(=O)c5OCc5ccccc5)c4)nn3)cc2)oc2cc(F)ccc12
Label Class: Not satisfied

Chemical Structure: O=C(/C=C/c1ccc(OCCCCc2cn(CCOCCOc3ccc(-c4cc(=O)c5ccccc5o4)cc3)nn2)cc1)c1ccc(F)cc1O
Label Class: Not satisfied

Chemical Structure: O=c1cc(-c2ccccc2)oc2cc(OCCCc3cn(CCOCCOCCOc4ccc(-c5cc(=O)c6cc(F)ccc6o5)cc4)nn3)ccc12
Label Class: Not satisfied

Chemical Structure: Cc1ccc2oc(-c3ccc(OCCOCCOCCn4cc(CCCOc5ccc6c(=O)cc(-c7ccccc7)oc6c5)nn4)cc3)cc(=O)c2c1
Label Class: Not satisfied

Chemical Structure: COc1cccc(COc2c(-c3ccc(OCCCCc4cn(CCOCCOc5ccc6c(=O)cc(-c7ccccc7)oc6c5)nn4)cc3)oc3ccccc3c2=O)c1
Label Class: Not satisfied

Chemical Structure: O=c1[nH]c(-c2ccc(OCCCc3cn(CCOCCOc4cccc(-c5oc6ccccc6c(=O)c5OCc5ccccc5)c4)nn3)cc2)nc2ccccc12
Label Class: Satisfied

Chemical Structure: O=c1cc(-c2ccc(OCCCc3cn(CCOCCOc4ccc(-c5cc(=O)c6cc(F)ccc6o5)cc4)nn3)cc2)oc2cc(F)ccc12
Label Class: Not satisfied

Chemical Structure: COc1cccc(COc2c(-c3ccc(OCCOCCn4cc(CCCOc5ccc6c(=O)cc(-c7ccccc7)oc6c5)nn4)cc3)oc3ccccc3c2=O)c1
Label Class: Satisfied

Chemical Structure: O=c1cc(-c2ccc(OCCOCCOCCn3cc(CN(Cc4cn(CCOCCOCCOc5ccc(-c6cc(=O)c7ccccc7o6)cc5)nn4)Cc4cn(CCOCCOCCOc5ccc(-c6cc(=O)c7ccccc7o6)cc5)nn4)nn3)cc2)oc2ccccc12
Label Class: Satisfied

Chemical Structure: O=c1c(OCc2ccccc2)c(-c2cccc(OCCOCCn3cc(CN4CCN(Cc5cn(CCOCCOc6cccc(-c7oc8ccccc8c(=O)c7OCc7ccccc7)c6)nn5)CC4)nn3)c2)oc2ccccc12
Label Class: Satisfied

Chemical Structure: O=c1cc(-c2ccc(OCCOCCOCCn3cc(CN(Cc4ccccc4)Cc4cn(CCOCCOCCOc5ccc(-c6cc(=O)c7ccccc7o6)cc5)nn4)nn3)cc2)oc2ccccc12
Label Class: Not satisfied

Chemical Structure: O=c1cc(-c2ccc(OCCOCCOCCn3cc(CCCCOc4ccc5c(=O)cc(-c6ccccc6)oc5c4)nn3)cc2)oc2ccccc12
Label Class: Not satisfied

Chemical Structure: C#CCCCOc1ccc2c(=O)cc(-c3ccccc3)oc2c1
Label Class: Satisfied

Chemical Structure: O=c1cc(-c2ccc(OCCOCCOCCn3cc(CN4CCN(Cc5cn(CCOCCOCCOc6ccc(-c7cc(=O)c8ccccc8o7)cc6)nn5)CC4)nn3)cc2)oc2ccccc12
Label Class: Satisfied

Chemical Structure: O=C(/C=C/c1ccc(OCCCCc2cn(CCOCCOCCOc3ccc(-c4cc(=O)c5cc(F)ccc5o4)cc3)nn2)cc1)c1ccc(F)cc1O
Label Class: Not satisfied
